System: Streptococcus pneumoniae, A9585
Assay: In vitro antibacterial activity (MIC), serial 2-fold dilution
Type: cell-based
Settings: Streptococcus pneumoniae A9585; Mueller-Hinton; 37°C, 17 h; read-out: Antibacterial Activity MIC S. pn.
Counter-ions that a name gives are not always drawn.
Assay Metric: MIC (µg/mL)

Example compounds with recorded MIC:
# Compound, Value Unit, MIC
measured = [
    ("C[C@@H](O)[C@H]1C(=O)N2C(C(=O)O)=C(SCc3ccccn3)[C@H](CCN)[C@H]12", "µg/mL", 0.13),
    ("C[C@@H](O)[C@H]1C(=O)N2C(C(=O)O)=C(SCCC#N)[C@H](CCNC(=N)N)[C@H]12", "µg/mL", 0.03),
    ("C[C@@H](O)[C@H]1C(=O)N2C(C(=O)O)=C(SCCO)[C@H](CCCNC=N)[C@H]12", "µg/mL", 0.25),
    ("C[C@@H](O)[C@H]1C(=O)N2C(C(=O)O)=C(SCCC#N)[C@H](CCCN)[C@H]12", "µg/mL", 0.25),
]

(A) C[C@@H](O)[C@H]1C(=O)N2C(C(=O)O)=C(SCCC#N)[C@H](CCN3CCCC3)[C@H]12
(B) C[C@@H](O)[C@H]1C(=O)N2C(C(=O)O)=C(SCCN)[C@H](CCCN)[C@H]12
(C) C[C@@H](O)[C@H]1C(=O)N2C(C(=O)O)=C(SCCNC(=N)N)[C@H](CCNC(=N)N)[C@H]12 [Example 135, acetic acid salt]
Order field: MIC | Direction: descending (largest first) Put the labels in the requested order and write them down.
B, C, A
(B: 0.13 µg/mL, C: 0.03 µg/mL, A: 0.008 µg/mL)

Where do the numbers come from? From patent EP0433759A1.
